Tested on: MCF-7
Assay: MTT cytotoxicity assay, MCF-7
Format: cell-based, human
Settings: Homo sapiens, MCF7, Table S3; read-out: Scale Exptl. (MCF-7 activity class)
Hi there, I'd appreciate the recorded MCF-7 activity class (from IC50) for every entry that follows.

For orientation, consider the following solved cases.
COc1cc(O)c(-c2c(O)cc(OC)c3c2CCc2cc(O)ccc2-3)c2c1-c1ccc(O)cc1CC2
1 to 20 µg/mL
COc1cc(O)cc2c1-c1ccc(O)cc1CC2
1 to 20 µg/mL
COc1cc2ccc3c(OC)ccc(OC)c3c2c(O)c1OC
> 20 µg/mL
COC1=CC(=O)c2ccc3cc(OC)c(O)c(OC)c3c2C1=O
1 to 20 µg/mL
COc1cc2c(cc1O)CCc1cc(O)cc(OC)c1-2
1 to 20 µg/mL
COc1cc(OC)c2c3c(ccc2c1)C(=O)C=CC3=O
1 to 20 µg/mL
COc1cc2ccc3c(OC)ccc(OC)c3c2c(O)c1O
1 to 20 µg/mL
COc1cc(O)c2c(c1)CCc1ccc(O)c(OC)c1-2
1 to 20 µg/mL
COc1cc2ccc3c(OC)ccc(OC)c3c2c(OC)c1OC
> 20 µg/mL

Now look at this entry.
Prompt line: # query: MCF-7 activity class (from IC50) of entry COc1cc(O)c2c(ccc3c(OC)ccc(OC)c32)c1 [Compound 9b, 5-hydroxy-1,4,7-trimethoxy-phenanthrene]
Response line: > 20 µg/mL

====

Tested on: MRC-5
Assay: MTT cytotoxicity assay, MRC-5 fetal lung fibroblast
Type: cell-based, human
Conditions: Homo sapiens, MRC5, Table 2, synthesized phenanthrenes, normal fetal lung fibroblast
assay endpoint: IC50 (µg/mL)
Give bare numbers, in µg/mL.

Here's what some known entries look like.
COC1=CC(=O)c2ccc3c(-c4c(OC)c(OC)c(OC)c5c6c(ccc45)C(=O)CC(OC)(OC)C6=O)c(OC)c(OC)c(OC)c3c2C1=O
8.11
COC1=CC(=O)c2ccc3cc(OC)c(OC)c(O)c3c2C1=O
0.6

Prompt line: Bench note: what IC50 did "COc1cc2ccc3c(c2c(OC)c1OC)C(=O)C=CC3=O" show?
Response line: 11.9

====

System: HepG2
Test: MTT cytotoxicity assay, HepG2
Assay type: cell-based, human
Conditions: Homo sapiens, HepG2, Table 2, synthesized phenanthrenes
Procedure: The cytotoxic assay of 11 naturally occurring and 19 synthesized phenanthrenes was carried out on a diverse set of human liver (HepG2 and Hep3B), oral (Ca9-22), lung (A549) and breast (MEA-MB-231 and MCF7) cancer cell lines, and a human fetal lung fibroblast (MRC-5) cell line (Tables 1 and 2). […]
Can you tell me IC50 for the items I'm about to list?

A selection of reference data follows.
COc1cc2ccc3c(OC)ccc(OC)c3c2c(OC)c1OC
> 20 µg/mL
COc1cc(OC)c2c(ccc3c(OC)ccc(OC)c32)c1
> 20 µg/mL

Prompt line: // lookup IC50 | system=HepG2 | key= "COc1cc2ccc3c(OC)ccc(OC)c3c2c(O)c1OC"
Response line: > 20 µg/mL

Hello, the source for this data is paper PMC3362575, in case you need it.
